Each recorded value in this set is attributed to patent US10752589B2.

# test-details: Pharmacokinetics in SD rats, IV dosing (Docetaxel and 1008)
# Type: in vivo
# particulars: Sprague-Dawley, rat, plasma, 3 mg/kg, 3 mpk IV, PEG400 and Normal saline, read-out: T1/2 elimination (converted)

{"molecule": "CC(=O)O[C@@]12CO[C@@H]1C[C@H](O)[C@@]1(C)C(=O)[C@H](O)C3=C(C)[C@@H](OC(=O)[C@H](OC(=O)c4ccc[n+](C)c4)[C@@H](NC(=O)OC(C)(C)C)c4ccccc4)C[C@@](O)([C@@H](OC(=O)c4ccccc4)[C@H]21)C3(C)C.[I-]", "scale-unit": "h", "half-life": 1.78}

---

# test-details: Solubility of Paclitaxel modified drug in saline solvent systems by HPLC
# particulars: aqueous with cosolvent or surfactant or cyclodextrin, thermodynamic from solid, Solubility in 9% NP in Normal Saline, 9% NP in Normal Saline
# Protocol: Solubility was checked in different solvent systems. Area under the curve for each were determined and based on that fold increase in solubility was determined.
quantity-measured: solubility

{"compound": "CC(=O)O[C@H]1C(=O)C2(C)C([C@H](OC(=O)c3ccccc3)[C@]3(O)C[C@H](OC(=O)[C@H](OC(=O)c4ccc[n+](C)c4)[C@H](NC(=O)c4ccccc4)c4ccccc4)C(C)=C1C3(C)C)[C@]1(OC(C)=O)CO[C@@H]1C[C@@H]2O.[I-] (stereo partly shown)", "quantity-measured": "solubility", "result": "> 1500 µg/mL"}

---

# test-details: Solubility of Paclitaxel modified drug in saline solvent systems by HPLC
# particulars: aqueous with cosolvent or surfactant or cyclodextrin, thermodynamic from solid, Solubility in 5% DMSO in Normal saline, 5% DMSO in Normal saline
quantity-measured: solubility

{"compound": "CC(=O)O[C@H]1C(=O)C2(C)C([C@H](OC(=O)c3ccccc3)[C@]3(O)C[C@H](OC(=O)[C@H](OC(=O)c4ccc[n+](C)c4)[C@H](NC(=O)c4ccccc4)c4ccccc4)C(C)=C1C3(C)C)[C@]1(OC(C)=O)CO[C@@H]1C[C@@H]2O.[I-] (stereo partly shown) [Compound 1001]", "quantity-measured": "solubility", "result": "> 1200 µg/mL"}

---

# test-details: Pharmacokinetics in SD rats, IV dosing (Docetaxel and 1008)
# Type: in vivo
# particulars: Sprague-Dawley, rat, plasma, 3 mg/kg, 3 mpk IV, PEG400 and Normal saline

{"molecule": "CC(=O)O[C@@]12CO[C@@H]1C[C@H](O)[C@@]1(C)C(=O)[C@H](O)C3=C(C)[C@@H](OC(=O)[C@H](OC(=O)c4ccc[n+](C)c4)[C@@H](NC(=O)OC(C)(C)C)c4ccccc4)C[C@@](O)([C@@H](OC(=O)c4ccccc4)[C@H]21)C3(C)C.[I-]", "scale-unit": "min", "Tmax": 4.8}
